# EXPERIMENTAL_TARGET: T1, human monomeric EGFR (EGFR.mmh) (human, UniProt P00533 25-647)
# T1 construct: Soluble monomeric EGFR construct
# EXPERIMENT_NOTES: SPR 37C, mAb captured by anti-human Fc, EGFR.mmh analyte
Here the recorded kon is given for each entry.
Write the number in M⁻¹ s⁻¹ without appending the unit.

BINDER	UNIT_TEXT	kon
H1H144P (antibody, human IgG1, V domains shown, Human IgG1 Fc (H1H)) VH: QVQLQESGPGLVMPSQTLSLTCTVSGGSINSGDYYWNWIRQHPGKGLEWIGYIYYSEISYHNPSLKSRVTTSIDTSTNQFSLKLSSVTAADTAVYYCARDRVELRAFDIWGQGTMVTVSS VL: DIQMTQSPSSLSASVGDRVTITCQASQDISNYLNWYQQKPGKAPKLLIYDASNLETGVPSRFSGSGSGTDFTFTISSLQPEDIATYYCQHYDSLPLTFGQGTRLEIK	M⁻¹ s⁻¹	184000

Continue with the binder presented below.
// kon lookup, key: H1H153P (antibody, human IgG1, V domains shown, Human IgG1 Fc (H1H)) VH: QVQLVESGGGVVQPGKSLRLSCAASGFTFSIYGMNWVRQAPGKGLDWVAVISDDGSNKDYVDSVRGRFTISRDNSKNTLYLQMNSLSAEDTAVYYCAKDRITGTHYYGLDVWGQGTTVTVSS VL: DIQMTQSPSSLSASVGDRITITCRASQDIANYLAWFQQKPGNAPTSLIYAASILQSGVPSKFSGSGSGTDFTLTITSLQPEDFASYYCQQYNRKPWTFGRGTKVEIK 76100

Cited source for all entries: patent US20180036405A1
